target: Glucocorticoid receptor (Homo sapiens, UniProt P04150); test: Inhibition of glucocorticoid receptor dependent alkaline phosphatase activity; assay type: functional
Sequence (P04150 whole entry): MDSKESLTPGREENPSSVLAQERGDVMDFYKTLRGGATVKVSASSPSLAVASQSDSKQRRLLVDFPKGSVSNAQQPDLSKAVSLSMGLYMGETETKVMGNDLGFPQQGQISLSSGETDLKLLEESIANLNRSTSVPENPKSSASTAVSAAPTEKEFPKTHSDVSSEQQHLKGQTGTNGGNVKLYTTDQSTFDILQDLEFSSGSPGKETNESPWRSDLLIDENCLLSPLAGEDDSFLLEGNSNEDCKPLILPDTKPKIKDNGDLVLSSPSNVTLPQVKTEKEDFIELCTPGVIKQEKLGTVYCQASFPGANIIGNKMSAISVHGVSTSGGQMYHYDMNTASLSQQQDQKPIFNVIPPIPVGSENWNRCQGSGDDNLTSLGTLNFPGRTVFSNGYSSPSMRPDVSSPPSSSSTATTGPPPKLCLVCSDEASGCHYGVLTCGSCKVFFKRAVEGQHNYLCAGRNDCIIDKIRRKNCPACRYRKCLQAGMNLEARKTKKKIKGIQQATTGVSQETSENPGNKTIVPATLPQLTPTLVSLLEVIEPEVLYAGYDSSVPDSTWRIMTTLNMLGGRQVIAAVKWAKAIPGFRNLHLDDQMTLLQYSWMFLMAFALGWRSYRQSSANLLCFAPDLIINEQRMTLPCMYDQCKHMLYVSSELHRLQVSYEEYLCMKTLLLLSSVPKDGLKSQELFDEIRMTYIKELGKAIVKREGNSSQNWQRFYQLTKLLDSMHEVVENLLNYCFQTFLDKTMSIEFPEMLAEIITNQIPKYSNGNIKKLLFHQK
MEASUREMENT NAME: Ki (µM)

Look over these answered cases.
{"MOLECULE": "C#C[C@]1(O)CC[C@H]2[C@@H]3CCC4=CC(=O)CCC4=C3[C@@H](c3ccc(N(C)CCCS(=O)(=O)N(C)C4CC[C@@]5(C)[C@@H](C4)C[C@@H](O)[C@@H]4[C@@H]5C[C@H](O)[C@]5(C)[C@@H]([C@H](C)CCC(=O)O)CC[C@@H]45)cc3)C[C@@]21C (some centres undefined)", "Ki (µM)": 0.015}
{"MOLECULE": "C#C[C@]1(O)CC[C@H]2[C@@H]3CCC4=CC(=O)CCC4=C3[C@@H](c3ccc(N(C)CCOC4CC[C@@]5(C)[C@@H](C4)C[C@@H](O)[C@@H]4[C@@H]5C[C@H](O)[C@]5(C)[C@@H]([C@H](C)CCC(=O)NCCS(=O)(=O)O)CC[C@@H]45)cc3)C[C@@]21C (some centres undefined)", "Ki (µM)": 0.037}
{"MOLECULE": "C#C[C@]1(O)CC[C@H]2[C@@H]3CCC4=CC(=O)CCC4=C3[C@@H](c3ccc(N(C)CCOC4CC[C@@]5(C)[C@@H](C4)C[C@@H](O)[C@@H]4[C@@H]5C[C@H](O)[C@]5(C)[C@@H]([C@H](C)CCC(=O)O)CC[C@@H]45)cc3)C[C@@]21C (stereo in doubt; form 1)", "Ki (µM)": 0.011}
{"MOLECULE": "C#C[C@]1(O)CC[C@H]2[C@@H]3CCC4=CC(=O)CCC4=C3[C@@H](c3ccc(N(C)CCNC(=O)OC4CC[C@@]5(C)[C@@H](C4)C[C@@H](O)[C@@H]4[C@@H]5C[C@H](O)[C@]5(C)[C@@H]([C@H](C)CCC(=O)O)CC[C@@H]45)cc3)C[C@@]21C (some centres undefined)", "Ki (µM)": 0.0014}

I = C#C[C@]1(O)CC[C@H]2[C@@H]3CCC4=CC(=O)CCC4=C3[C@@H](c3ccc(N(C)CCOCCO[C@H]4CC[C@@]5(C)[C@@H](C4)C[C@@H](O)[C@@H]4[C@@H]5C[C@H](O)[C@]5(C)[C@@H]([C@H](C)CCC(=O)O)CC[C@@H]45)cc3)C[C@@]21C
II = C#C[C@]1(O)CC[C@H]2[C@@H]3CCC4=CC(=O)CCC4=C3[C@@H](c3ccc(N(C)CCOCCO[C@@H]4CC[C@@]5(C)[C@@H](C4)C[C@@H](O)[C@@H]4[C@@H]5C[C@H](O)[C@]5(C)[C@@H]([C@H](C)CCC(=O)O)CC[C@@H]45)cc3)C[C@@]21C
III = C#C[C@]1(O)CC[C@H]2[C@@H]3CCC4=CC(=O)CCC4=C3[C@@H](c3ccc(N(C)C(=O)CNC(=O)O[C@H]4C[C@H]5[C@@H]([C@H](O)C[C@@H]6C[C@H](O)CC[C@@]65C)[C@@H]5CC[C@H]([C@H](C)CCC(=O)O)[C@@]45C)cc3)C[C@@]21C
Sort entries by Ki from minimum to maximum value. In plain terms: list the labels in the order you were asked to.
I, II, III
(I: 0.0011 µM, II: 0.012 µM, III: 0.1 µM)
